- tested-target: Cytochrome P450 2E1 (Homo sapiens); further: in other assays of this panel Not Active means under 50% inhibition at 10 µM
- Sequence (P05181 whole entry): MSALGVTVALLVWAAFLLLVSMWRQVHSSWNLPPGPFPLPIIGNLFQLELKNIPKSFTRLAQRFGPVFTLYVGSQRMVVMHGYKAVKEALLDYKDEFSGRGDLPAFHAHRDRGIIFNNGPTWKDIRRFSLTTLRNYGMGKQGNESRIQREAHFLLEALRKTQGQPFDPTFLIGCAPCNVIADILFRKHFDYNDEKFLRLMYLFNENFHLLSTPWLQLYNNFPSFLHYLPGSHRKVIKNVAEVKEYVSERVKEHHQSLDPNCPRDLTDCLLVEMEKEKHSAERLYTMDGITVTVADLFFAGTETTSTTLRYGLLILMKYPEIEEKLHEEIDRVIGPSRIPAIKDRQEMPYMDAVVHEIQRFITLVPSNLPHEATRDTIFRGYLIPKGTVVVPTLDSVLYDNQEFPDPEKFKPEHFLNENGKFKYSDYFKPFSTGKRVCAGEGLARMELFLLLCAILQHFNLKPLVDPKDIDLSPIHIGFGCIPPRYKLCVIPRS
- condition-context: bti-tn-5b1-4
reported-metric: Ki

Examples with their reported Ki follow.
molecule	observed-value
COc1ccccc1N	Not Active
CC(C)NC[C@H](O)COc1cccc2ccccc12	Not Active
O=C(O)c1cc(-c2ccc(F)cc2F)ccc1O	Not Active
O=C(O)CC(O)(CC(=O)O)C(=O)O	Not Active

Now examine the next entry.
Ask: Looking for the measured Ki of CN(C)C(=O)Oc1cccc([N+](C)(C)C)c1.[Br-] [NEOSTIGMINE BROMIDE] , can you help?
Result: Not Active

---

- tested-target: Acetylcholinesterase (Homo sapiens)
- Sequence (P22303 whole entry): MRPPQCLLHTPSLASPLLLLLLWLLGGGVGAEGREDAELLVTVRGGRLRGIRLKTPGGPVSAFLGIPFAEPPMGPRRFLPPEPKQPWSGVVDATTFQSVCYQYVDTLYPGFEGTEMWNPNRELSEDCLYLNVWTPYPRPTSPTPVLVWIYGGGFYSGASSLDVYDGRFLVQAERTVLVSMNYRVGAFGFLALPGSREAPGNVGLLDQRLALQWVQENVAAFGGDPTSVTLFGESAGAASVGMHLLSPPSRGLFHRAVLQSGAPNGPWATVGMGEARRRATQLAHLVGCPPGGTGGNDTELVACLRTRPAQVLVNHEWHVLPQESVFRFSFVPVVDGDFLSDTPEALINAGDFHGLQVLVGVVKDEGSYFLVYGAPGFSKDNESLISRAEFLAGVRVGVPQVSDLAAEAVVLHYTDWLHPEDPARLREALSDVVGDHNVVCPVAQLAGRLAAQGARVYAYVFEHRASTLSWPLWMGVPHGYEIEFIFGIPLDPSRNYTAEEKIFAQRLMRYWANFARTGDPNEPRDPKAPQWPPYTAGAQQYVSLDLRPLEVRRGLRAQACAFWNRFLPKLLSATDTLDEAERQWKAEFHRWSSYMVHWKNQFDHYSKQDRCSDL
- run-description: DRUGMATRIX: Acetylcholinesterase enzyme inhibition (substrate: acetylthiocholine)
- Format: cell-based, HEK293
- condition-context: hek293; Not Active = under 50% inhibition at 10 µM
reported-metric: IC50

Examples with their reported IC50 follow.
compound	IC50
C[C@]12CC[C@H]3[C@@H](CCC4=CC(=O)CC[C@@H]43)[C@@H]1CC[C@@H]2O [NANDROLONE]	Not Active
CN1C(=O)CN=C(c2ccccc2)c2cc([N+](=O)[O-])ccc21 [NIMETAZEPAM]	Not Active
CN1CCN(C(c2ccccc2)c2ccccc2)CC1 [CYCLIZINE]	Not Active
NC(=O)c1cccc(N)c1 [3-AMINOBENZAMIDE]	Not Active
CC(=O)OCC(=O)[C@@]12OC(C)(C)O[C@@H]1C[C@H]1[C@@H]3C[C@H](F)C4=CC(=O)C=C[C@]4(C)[C@@]3(F)[C@@H](O)C[C@@]12C [FLUOCINONIDE]	Not Active
CC(C)(C(=O)O)c1ccc(C(O)CCCN2CCC(C(O)(c3ccccc3)c3ccccc3)CC2)cc1 (stereo not drawn) [FEXOFENADINE]	Not Active
CC(C)NC[C@H](O)COc1cccc2ccccc12 [LEVOPROPRANOLOL]	Not Active

Ask: Looking for the measured IC50 of CNC1=Nc2ccc(Cl)cc2C(c2ccccc2)=[N+]([O-])C1 [CHLORDIAZEPOXIDE] , can you help?
Result: Not Active

---

- tested-target: Tyrosine-protein kinase Fyn (Homo sapiens);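 further: enzymatic inhibition of Fyn kinase activity measured with Poly(Glu:Tyr) as the phosphorylation substrate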; further: in other assays of this panel Not Active means under 50% inhibition at 10 µM
- Sequence (P06241 whole entry): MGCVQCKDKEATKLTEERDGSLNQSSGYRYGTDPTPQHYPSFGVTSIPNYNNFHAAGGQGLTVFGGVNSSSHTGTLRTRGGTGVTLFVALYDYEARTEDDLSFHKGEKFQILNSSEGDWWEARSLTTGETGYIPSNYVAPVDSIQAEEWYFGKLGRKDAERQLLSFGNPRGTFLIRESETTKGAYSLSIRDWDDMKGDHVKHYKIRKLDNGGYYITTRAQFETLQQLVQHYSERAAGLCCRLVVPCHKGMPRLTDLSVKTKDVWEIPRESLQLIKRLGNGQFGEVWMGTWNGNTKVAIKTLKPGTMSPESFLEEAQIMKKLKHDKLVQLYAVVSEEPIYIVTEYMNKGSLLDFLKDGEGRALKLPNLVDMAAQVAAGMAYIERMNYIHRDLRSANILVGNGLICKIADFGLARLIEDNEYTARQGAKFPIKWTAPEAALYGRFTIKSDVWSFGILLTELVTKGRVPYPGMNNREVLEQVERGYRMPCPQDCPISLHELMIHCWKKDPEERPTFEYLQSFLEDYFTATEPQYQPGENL
- run-description: biochemical
- Type: cell-based, Insect cells
- condition-context: insect cells; read-out: IC50
reported-metric: pIC50
Kindly note that pIC50 refers to -log10 of the concentration in mol/L and answer with the value alone.

Ask: Looking for the measured pIC50 of "TRANSPLATIN" , can you help?
Result: 6.25

Ask: Now this one: "COLISTIN"
Result: 6.02

---

- run-description: DRUGMATRIX: Tumor Necrosis Factor (TNF), Non-Selective radioligand binding (ligand: [125I] TNF-alpha)
- Format: cell membranes, Membrane
- condition-context: u-937; Not Active = under 50% inhibition at 10 µM
reported-metric: Ki

Examples with their reported Ki follow.
molecule	Ki
CN1CCCC(CN2c3ccccc3Sc3ccccc32)C1 (configuration not stated)	Not Active
C[C@]12CC[C@@H]3c4ccc(O)cc4CC[C@H]3[C@@H]1C[C@@H](O)[C@@H]2O	Not Active
NS(=O)(=O)c1cc(C2(O)NC(=O)c3ccccc32)ccc1Cl (configuration not stated)	Not Active
CNC1=Nc2ccc(Cl)cc2C(c2ccccc2)=[N+]([O-])C1 [CHLORDIAZEPOXIDE]	Not Active
C[C@@H]1C/C=C/C=C/C=C/C=C/[C@H](O[C@@H]2O[C@H](C)[C@@H](O)[C@H](N)[C@@H]2O)C[C@@H]2O[C@](O)(C[C@@H](O)C[C@H]3O[C@@H]3/C=C/C(=O)O1)C[C@H](O)[C@H]2C(=O)O	Not Active
C[C@@H]1O[C@@H](O[C@H]2C[C@@H](O)[C@]3(CO)[C@H]4[C@H](O)C[C@]5(C)[C@@H](C6=CC(=O)OC6)CC[C@]5(O)[C@@H]4CC[C@]3(O)C2)[C@H](O)[C@H](O)[C@H]1O	Not Active

Now examine the next entry.
Ask: Looking for the measured Ki of "C[C@H]1COc2c(N3CCN(C)CC3)c(F)cc3c(=O)c(C(=O)O)cn1c23.C[C@H]1COc2c(N3CCN(C)CC3)c(F)cc3c(=O)c(C(=O)O)cn1c23.O" , can you help?
Result: Not Active
